For each record, write down the corresponding koff.
- Target of assay: T1, Taq DNA polymerase (Thermus aquaticus, UniProt P19821 1-832)
- T1 construct: also called Taq enzyme; Taq DNA enzyme
- T1 sequence (P19821 whole entry): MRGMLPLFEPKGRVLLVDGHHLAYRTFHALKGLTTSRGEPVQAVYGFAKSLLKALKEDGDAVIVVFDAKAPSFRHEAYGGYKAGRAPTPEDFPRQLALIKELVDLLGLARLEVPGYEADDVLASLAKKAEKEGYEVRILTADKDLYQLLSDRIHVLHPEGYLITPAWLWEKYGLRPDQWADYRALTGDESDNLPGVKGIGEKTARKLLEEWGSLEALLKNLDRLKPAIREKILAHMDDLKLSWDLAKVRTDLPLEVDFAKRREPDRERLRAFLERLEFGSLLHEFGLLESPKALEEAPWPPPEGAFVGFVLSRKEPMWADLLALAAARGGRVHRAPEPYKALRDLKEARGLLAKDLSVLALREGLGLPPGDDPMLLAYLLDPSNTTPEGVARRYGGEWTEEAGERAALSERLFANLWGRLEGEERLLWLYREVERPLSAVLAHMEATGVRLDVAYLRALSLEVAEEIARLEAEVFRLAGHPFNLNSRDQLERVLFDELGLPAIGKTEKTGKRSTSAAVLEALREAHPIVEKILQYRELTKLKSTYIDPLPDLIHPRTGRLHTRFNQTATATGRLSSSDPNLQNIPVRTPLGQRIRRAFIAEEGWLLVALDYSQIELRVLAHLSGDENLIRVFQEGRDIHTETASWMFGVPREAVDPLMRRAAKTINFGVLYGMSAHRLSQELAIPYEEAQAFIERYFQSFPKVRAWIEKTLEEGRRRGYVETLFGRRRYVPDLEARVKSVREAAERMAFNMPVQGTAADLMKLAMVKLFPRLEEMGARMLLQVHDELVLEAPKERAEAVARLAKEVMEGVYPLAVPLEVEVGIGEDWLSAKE
- Assay procedure: AMC sensor, antibody immobilised
Please respond with the number in s⁻¹ and leave the unit unwritten.

Reported koff, binder WT 1-7 (antibody, V domains shown, WT background; CDRs built) VH: QVQLQQPGAELVKPGASVRLSCQTSVDTFTTYYLYWVKQRPGEGLEWIGGINPTSNPVFDEKFKSKATLTVDTSSSTAYMQLSSLTSVDSAVYYCTRSLVRRGYYPDYWGQGTALTVSS VL: DIQMTQTTSSLSASLGDRVTISCRGSQDINNYVNWYQQKPDGTIKLLIYFTSRLNSGVPSRFSGSGSGTDYSLTIANLEQEDIATYFCQQDDTLPITWGAGTKVELKR : ____
0.000296

Also WT 1-2 (antibody, V domains shown, WT background; CDRs built) VH: QVQLQQPGAELVKPGASVRLSCQTSVETFSTYYLYWVKQRPGEGLEWIGGLNPTSNPVFDEKFKSKATLTVDTSSSTAYMQLSSLTSVDSAVYYCTRSIIRRGYYPDYWGQGTALTVSS VL: DIQMTQTTSSLSASLGDRVTISCRGSQDIQNYLNWYQQKPDGTIKLLIYFTSRLQSGLPSRFSGSGSGTDYSLTIANLEQEDIATYFCQQDDTIPLTWGAGTKVELKR ?
0.000166

Also WT 1-6 (antibody, V domains shown, WT background; CDRs built) VH: QVQLQQPGAELVKPGASVRLSCQTSVDTFSTYYLYWVKQRPGEGLEWIGGVNPTSNPVFDEKFKSKATLTVDTSSSTAYMQLSSLTSVDSAVYYCTRSLLRRGYYPDYWGQGTALTVSS VL: DIQMTQTTSSLSASLGDRVTISCRGSQDIQNYVNWYQQKPDGTIKLLIYFTSRLNSGIPSRFSGSGSGTDYSLTIANLEQEDIATYFCQQDDTLPVTWGAGTKVELKR ?
0.000506

All values here come from patent US20210403601A1.
